test system: NCI/ADR-RES ovarian; assay: NCI tumour cell line growth inhibition, 48 h
measured-parameter: GI50

compound | measurement-target | result
C=C1CCC2C3(C)COC(c4cccc(Cl)c4)OC3CCC2(C)C1/C=C/C1=CCOC1=O (stereo not drawn) | NCI/ADR-RES ovarian | 6.06 µM
c1ccc(COc2ccc(Nc3ncnc4ccc(-c5ccco5)cc34)cc2)cc1 | NCI/ADR-RES ovarian | 7.97 µM
COc1cccc(C2C3=C(COC3=O)N(CCO)c3cc4c(cc32)CCC4)c1 (stereo not drawn) | NCI/ADR-RES ovarian | 0.0556 µM
Cc1nc(N=C(N)N)nc2ccc3ccccc3c12 | NCI/ADR-RES ovarian | 11.4 µM
O=C(O)Cc1ccccc1 | NCI/ADR-RES ovarian | > 1000 µM
C[C@@H](Oc1cc(-n2cnc3ccc(OCC4CCN(C)CC4)cc32)sc1C(N)=O)c1ccccc1C(F)(F)F | NCI/ADR-RES ovarian | 0.477 µM

Report GI50 for CCN1C(=O)N(CC)C2C1NN=c1s/c(=C\c3ccc([N+](=O)[O-])cc3)c(=O)n12 (stereo not drawn)
0.396 µM

Provide one value: measured GI50 of Nc1nccc(C#Cc2cncnc2Nc2ccc(OCc3cccc(F)c3)c(Cl)c2)n1
6.6 µM

###

test system: SF-539 CNS; test: NCI tumour cell line growth inhibition, 48 h
Below is a list of entries, each paired with its recorded TGI value.
Numeric answer only, unit µM assumed.

structure | u | TGI
ClCc1nc2cc(Cl)ccc2o1 | µM | 17.8

API: the following record is the query input.
Consider the compound NCCCNCCCNc1nc2ccccc2c2[nH]c3ccccc3c12 and give its recorded TGI.
1.55

###

test system: K-562 leukemia; assay: NCI tumour cell line growth inhibition, 48 h
Below: a set of entries, each annotated with reported TGI.

molecule | result
CSc1nc(NC2OC(CO)C(O)C(O)C2O)c(N)c(=O)n1C (centres undefined) | > 100 µM

Please give the documented TGI of CCN(CC)c1ccc(/C=C/C2=[N+](C)c3ccccc3C2(C)C)cc1
> 100 µM

Specify measured TGI for Nc1nc(SCC(=O)c2ccccc2)nc2nc3c(c(-c4ccccc4)c12)CCCC3 .
> 100 µM

###

Reported values of TGI for individual entries
system: T-47D breast; assay: NCI tumour cell line growth inhibition, 48 h

Example results:
compound | TGI
O=C1c2cc([N+](=O)[O-])cnc2S(=O)(=O)N1c1ccc(Oc2ccccc2)cc1 | > 100 µM
c1ccc(CNc2nc(Nc3ccc(-c4nc5ccccc5[nH]4)cc3)c3cn[nH]c3n2)cc1 | 5.46 µM
COc1ccc2c(c1)C(=O)/C(=C/c1ccc(OCC(=O)c3ccc(Cl)cc3)cc1)O2 | 35.7 µM

Read off the recorded TGI for CC(C)=CCc1c(O)c(CC=C(C)C)c2oc3c(c(=O)c2c1O)C(C=C(C)C)Oc1cc(O)ccc1-3 (stereo not given)
15.4 µM

Respond only with TGI recorded for C[C@@H](Oc1cc(-n2cnc3ccc(OCC4CCN(C)CC4)cc32)sc1C(N)=O)c1ccccc1C(F)(F)F
6.03 µM

###

tested on: HOP-62 NSCLC; test: NCI tumour cell line growth inhibition, 48 h
measured-parameter: TGI (µM)
// units = µM; emit number, no label

compound | numeric-result
CC1OC(OC2C(OC3CCC4(C)C(CCC5(C)C4CC=C4C6CC(C)(C)CCC6(CO)C(O)CC45C)C3(C)C)OC(C(=O)O)C(OC3OC(COC4OC(CO)C(O)C(O)C4O)C(O)C(O)C3O)C2O)C(O)C(O)C1O (centres undefined) | 30.9

Answer with the recorded TGI for the compound listed here: O=[N+]([O-])c1ccc2nc(/C=C(\O)c3ccccc3)c(/C=C(\O)c3ccc(Cl)cc3)nc2c1
88.2

###

system: SNB-75 CNS; assay: NCI tumour cell line growth inhibition, 48 h
measured-parameter: TGI

Some solved cases for reference:
molecule | measurement-target | result
O=C1c2cc([N+](=O)[O-])cnc2S(=O)(=O)N1c1ccc(Oc2ccccc2)cc1 | SNB-75 CNS | > 100 µM
Cn1c(=O)c2c(nc3n2C(CCl)CO3)n(C)c1=O (centres undefined) | SNB-75 CNS | > 100 µM

Determine its reported TGI: CCOC(=O)C1=C(O)CSC1=Nc1ccc(N=C2SCC(O)=C2C(=O)OCC)cc1
61.4 µM

State its TGI: COc1ccc(N=C/C=C/C(=C/COC(C)=O)OC(C)=O)cc1
> 100 µM

Output measured TGI for this item: O=C(O)C1CCCCN1CCc1c[nH]c2ccccc12 (centres undefined)
> 100 µM

// Input: C[C@H]1ON2CCC[C@@H]2[C@@H]1C(=O)N1C2CC3CCC2(CS1(=O)=O)C3(C)C (some centres undefined) . Output its TGI only.
> 100 µM

Hello, please tell me recorded TGI for this one: COC(=O)[C@@]12C3=NO[C@]1(C(=O)OC)C(O[Si](C)(C)C(C)(C)C)C1OC(C)(C)OC1[C@@H]2[C@@H](OCc1ccccc1)CC3 (some centres undefined)
> 100 µM

For the molecule COC(=O)C1(Cc2ccccc2C)Cc2ccc(C)cc2C1=O (centres undefined) , report TGI.
> 100 µM

Please report the measured TGI for Cc1ccc(S(=O)(=O)OC(C=O)C(O)C(O)COC(c2ccccc2)(c2ccccc2)c2ccccc2)cc1 (centres undefined)
29.4 µM

###

tested on: SNB-75 CNS; assay: NCI tumour cell line growth inhibition, 48 h
measured-parameter: GI50

See these solved cases before continuing.
structure | result
O=C1c2cccnc2-c2nc(-c3ccccc3)cc3c2c1nc1ccccc13 | 10.5 µM
O=C(Nc1ccc(-n2cc(-c3ccncc3)c(-c3ccc(O)c(Cl)c3)n2)cc1)c1ccc(Cl)c(Cl)c1 | 2.64 µM

Provide measured GI50 on SNB-75 CNS for CN(C)c1ccc(N=C(C#N)c2nc(N)nc(N3CCOCC3)n2)cc1 please.
18.7 µM

###

Reported TGI values are given for each entry in this list.
test system: UACC-257 melanoma; test: NCI tumour cell line growth inhibition, 48 h

Answer with the recorded TGI for the molecule listed here: COc1ccc(C(=O)Nc2ccccc2C#N)cc1
> 100 µM

Specify TGI for CC(C)(C)OC(=O)N1CCC[C@H]1CSC[C@@H]1CCCN1C(=O)OC(C)(C)C and stop.
90.8 µM

State its TGI for this molecule: CCN(CC)CCSc1nc2c([N+](=O)[O-])cccc2[nH]1
> 100 µM

Read the entry COc1cc(/C=C2\N=C(c3ccccc3)N(/N=C/c3cc4cc(C)ccc4nc3Cl)C2=O)ccc1O and write its reported TGI.
> 100 µM

Quickly give me recorded TGI for NC(=O)OCc1c(O)c2c(c(O)c1COC(N)=O)C(=O)C=CC2=O
> 100 µM

Give recorded TGI. O=[N+]([O-])c1ccc2nc(/C=C(\O)c3ccccc3)c(/C=C(\O)c3ccc(Cl)cc3)nc2c1
> 100 µM

# return recorded TGI for input COC(=O)c1c(OC(C)=O)ccc2c1c1c(n2Cc2ccccc2)C(=O)c2ccccc2C1=O
26.8 µM

Name the recorded TGI of the molecule listed here: CC1(C)O[C@@H]([C@@H](O)[C@H](O)C2SCCCS2)[C@@H](CO)O1
> 100 µM

Input O=C(/C=C/c1cccnc1)/C=C/c1cccnc1 , output reported TGI.
20.3 µM

Hello, please tell me recorded TGI for this one: CCOC(=O)c1c(C)n(-c2ccc(C)cc2)c2c1cc(O)c1[nH]c3c(c12)CCCC3
56.7 µM

# return recorded TGI for entry Nc1ccc(C(=O)O)c2[nH]c3ccccc3c(=O)c12
> 100 µM

Provide one value: measured TGI of CCOC(=O)/C(=C/c1c(-c2ccccc2)[nH]c2ccccc12)C(=O)c1ccc(Cl)cc1
> 100 µM

Look up TGI of COc1ccc(C(=O)Nc2ccccc2)cc1[N+](=O)[O-] and report it.
> 100 µM

Consider the molecule COc1ccc([N+](=O)[O-])cc1[I+]c1cc([N+](=O)[O-])ccc1OC . State its measured TGI.
> 100 µM

Name the recorded TGI of the item CCC1c2[nH]c3ccccc3c2C[C@H]2C(=O)NC(Cc3ccccc3)C(=O)N12 (stereo partly specified) in your answer.
49.6 µM

Hello, please tell me recorded TGI for this one: CC(=O)N(CCc1ccccc1)C(C)(C#N)c1ccccc1 (stereo unspecified)
> 100 µM

Kindly indicate its recorded TGI. Item: COc1cc2nc(-c3ccc(Cl)cc3)cc(OCCCN3CCC(O)CC3)c2cc1OC
4.56 µM

// Input: O=C(O)Cc1ccccc1 . Output its TGI only.
> 2000 µM

Fill in TGI for record C=C1C(=O)C23C(O)C1CCC2C12CO[C@]3(O)[C@@H](O)C1C(C)(C)CCC2O (stereo partly specified)
23.8 µM

Check the records and state TGI for CN(N=O)C(N)=NC(=O)c1ccccc1
> 100 µM

Specify measured TGI for C=C1CCC2C3(C)COC(c4cccc(Cl)c4)OC3CCC2(C)C1/C=C/C1=CCOC1=O (stereo unspecified) .
> 100 µM
